From: ChEMBL document CHEMBL3044741

Test system: Streptococcus pyogenes
Assay: Antibacterial activity against Streptococcus pyogenes MTCC 442 after 24 hrs by broth dilution method
Assay type: functional
Settings: MTCC 442, 24 h
Param label: returns true (1) when MIC < 100 µg/mL, returns false (0) otherwise, including exact equality.

>  <compound>
O=C(N[C@H](CO)[C@H](O)c1ccc([N+](=O)[O-])cc1)C(Cl)Cl

>  <class>
true (1)

$$$$

Q. Does the reported MIC of [O-]c1on[n+](-c2ccc(Cc3ccc(-[n+]4noc([O-])c4CN4CCN(C5=Nc6ccccc6Sc6ccccc65)CC4)cc3)cc2)c1CN1CCN(C2=Nc3ccccc3Sc3ccccc32)CC1 stay below 100 µg/mL?
A. false (0)

Q. Please do the same for CN1CCN(Cc2c([O-])on[n+]2-c2ccc(Cc3ccc(-[n+]4noc([O-])c4CN4CCN(C)C(c5ccccc5)C4)cc3)cc2)CC1c1ccccc1 (stereo not drawn) as well.
A. false (0)

Q. Please do the same for [O-]c1on[n+](-c2ccc(Cc3ccc(-[n+]4noc([O-])c4CN4CCCCC4)cc3)cc2)c1CN1CCCCC1 as well.
A. false (0)

Q. Please do the same for Cc1ccc(-[n+]2noc([O-])c2CN2CCOCC2)cc1 as well.
A. false (0)

Q. Please do the same for Cc1ccc(-[n+]2noc([O-])c2CN2CCN(c3cccc(Cl)c3Cl)CC2)cc1 as well.
A. false (0)

---

Test system: Candida albicans
Test: Antifungal activity against Candida albicans MTCC 227 at 250 ug/ml after 74 hrs by Kirby-Bauer method
Format: functional
Settings: MTCC 227, 74 h, read-out: IZ
Each entry below carries its reported zone of inhibition at 250 µg/mL.
Respond numerically; units are mm and should not be typed.

>  <test-smiles>
[O-]c1on[n+](-c2ccc(Cc3ccc(-[n+]4noc([O-])c4CN4CCN(c5cccc(Cl)c5Cl)CC4)cc3)cc2)c1CN1CCN(c2cccc(Cl)c2Cl)CC1

>  <assayed-system>
Candida albicans

>  <zone of inhibition at 250 µg/mL / mm>
21

$$$$
>  <test-smiles>
Cc1ccc(-[n+]2noc([O-])c2CN2CCN(C)CC2)cc1

>  <assayed-system>
Candida albicans

>  <zone of inhibition at 250 µg/mL / mm>
18

$$$$
>  <test-smiles>
Cc1ccc(-[n+]2noc([O-])c2CN2CCNCC2)cc1

>  <assayed-system>
Candida albicans

>  <zone of inhibition at 250 µg/mL / mm>
21

$$$$
>  <test-smiles>
Cc1ccc(-[n+]2noc([O-])c2CN2CCOCC2)cc1

>  <assayed-system>
Candida albicans

>  <zone of inhibition at 250 µg/mL / mm>
23

$$$$

Now consider the entry below.
Q. Form entry - test system: Candida albicans; read-out: zone of inhibition at 250 µg/mL; molecule: Cc1ccc(-[n+]2noc([O-])c2CN2CCN(c3cccc(Cl)c3Cl)CC2)cc1
A. 18

---

Assay: Cytotoxicity against human MT4 cells by MTT assay
Format: cell-based
readout-name: CC50 (µg/mL)
Respond numerically; units are µg/mL and should not be typed.

These recorded examples may help you get a feel for the data.
>  <compound>
Cc1ccc(-[n+]2noc([O-])c2CN2CCOCC2)cc1

>  <readout-name>
CC50

>  <unit-string>
µg/mL

>  <recorded-result>
16.6

$$$$
>  <compound>
[O-]c1on[n+](-c2ccc(Cc3ccc(-[n+]4noc([O-])c4CN4CCNCC4)cc3)cc2)c1CN1CCNCC1

>  <readout-name>
CC50

>  <unit-string>
µg/mL

>  <recorded-result>
14

$$$$

Now consider the entry below.
Q. Fill in: CC50 of Cc1ccc(-[n+]2noc([O-])c2CN2CCN(C)C(c3ccccc3)C2)cc1 (stereo not given) is ___
A. 14.4

---

Test system: Staphylococcus aureus
Experiment: Antibacterial activity against Staphylococcus aureus MTCC 96 at 250 ug/ml after 24 hrs by Kirby-Bauer method
Type: functional
Conditions: MTCC 96, 24 h, read-out: IZ
readout-name: zone of inhibition at 250 µg/mL (mm)
Respond numerically; units are mm and should not be typed.

>  <test-smiles>
O=C(O)c1cn(C2CC2)c2cc(N3CCNCC3)c(F)cc2c1=O

>  <recorded-result>
22

$$$$
>  <test-smiles>
Cc1ccc(-[n+]2noc([O-])c2CN2CCN(C3=Nc4ccccc4Sc4ccccc43)CC2)cc1

>  <recorded-result>
19

$$$$
>  <test-smiles>
CC(=O)N1CCN(Cc2c([O-])on[n+]2-c2ccc(C)cc2)CC1

>  <recorded-result>
17

$$$$
>  <test-smiles>
O=C(N[C@H](CO)[C@H](O)c1ccc([N+](=O)[O-])cc1)C(Cl)Cl

>  <recorded-result>
21

$$$$
>  <test-smiles>
Cc1ccc(-[n+]2noc([O-])c2CN2CCOCC2)cc1

>  <recorded-result>
21

$$$$

Q. Fill in: zone of inhibition at 250 µg/mL of CCn1cc(C(=O)O)c(=O)c2cc(F)c(N3CCNCC3)cc21 is ___
A. 28

Q. Please do the same for Cc1ccc(-[n+]2noc([O-])c2CN2CCN(c3cccc(Cl)c3Cl)CC2)cc1 as well.
A. 17

Q. Please do the same for Cc1ccc(-[n+]2noc([O-])c2CN2CCN(C)CC2)cc1 as well.
A. 16

Q. Please do the same for [O-]c1on[n+](-c2ccc(Cc3ccc(-[n+]4noc([O-])c4CN4CCN(C5=Nc6ccccc6Sc6ccccc65)CC4)cc3)cc2)c1CN1CCN(C2=Nc3ccccc3Sc3ccccc32)CC1 as well.
A. 23

---

Each entry below carries its reported CC50.
Experiment: Cytotoxicity against human MT4 cells by MTT assay
Type: cell-based
Respond numerically; units are µg/mL and should not be typed.

>  <molecule>
[O-]c1on[n+](-c2ccc(Cc3ccc(-[n+]4noc([O-])c4CN4CCN(c5ccccc5)CC4)cc3)cc2)c1CN1CCN(c2ccccc2)CC1

>  <CC50, µg/mL>
10.3

$$$$
>  <molecule>
CC(=O)N1CCN(Cc2c([O-])on[n+]2-c2ccc(C)cc2)CC1

>  <CC50, µg/mL>
17.3

$$$$
>  <molecule>
Cc1ccc(-[n+]2noc([O-])c2CN2CCNCC2)cc1

>  <CC50, µg/mL>
32.6

$$$$

Q. Fill in: CC50 of Cc1ccc(-[n+]2noc([O-])c2CN2CCN(C)CC2)cc1 is ___
A. 12.7

Q. Please do the same for CC(=O)N1CCN(Cc2c([O-])on[n+]2-c2ccc(Cc3ccc(-[n+]4noc([O-])c4CN4CCN(C(C)=O)CC4)cc3)cc2)CC1 as well.
A. 12

Q. Please do the same for Cc1ccc(-[n+]2noc([O-])c2CN2CCN(c3cccc(Cl)c3Cl)CC2)cc1 as well.
A. 31.7

Q. Please do the same for CN1CCN(Cc2c([O-])on[n+]2-c2ccc(Cc3ccc(-[n+]4noc([O-])c4CN4CCN(C)C(c5ccccc5)C4)cc3)cc2)CC1c1ccccc1 (centres undefined) as well.
A. 14

Q. Please do the same for [O-]c1on[n+](-c2ccc(Cc3ccc(-[n+]4noc([O-])c4CN4CCCCC4)cc3)cc2)c1CN1CCCCC1 as well.
A. 12.1

---

Test: Cytotoxicity against human HEL cells assessed as alteration in cell morphology
Type: cell-based
readout-name: MCC

>  <compound>
Cc1ccc(-[n+]2noc([O-])c2CN2CCNCC2)cc1

>  <MCC>
100 µg/mL

$$$$
>  <compound>
Cc1ccc(-[n+]2noc([O-])c2CN2CCN(C)C(c3ccccc3)C2)cc1 (configuration not stated)

>  <MCC>
100 µg/mL

$$$$
>  <compound>
[O-]c1on[n+](-c2ccc(Cc3ccc(-[n+]4noc([O-])c4CN4CCN(c5ccccc5)CC4)cc3)cc2)c1CN1CCN(c2ccccc2)CC1

>  <MCC>
≥ 20 µg/mL

$$$$
>  <compound>
[O-]c1on[n+](-c2ccc(Cc3ccc(-[n+]4noc([O-])c4CN4CCCCC4)cc3)cc2)c1CN1CCCCC1

>  <MCC>
≥ 20 µg/mL

$$$$

Q. Fill in: MCC of CC(=O)N1CCN(Cc2c([O-])on[n+]2-c2ccc(Cc3ccc(-[n+]4noc([O-])c4CN4CCN(C(C)=O)CC4)cc3)cc2)CC1 is ___
A. 20 µg/mL

Q. Please do the same for Cc1ccc(-[n+]2noc([O-])c2CN2CCCCC2)cc1 as well.
A. 100 µg/mL

Q. Please do the same for Cc1ccc(-[n+]2noc([O-])c2CN2CCN(c3cccc(Cl)c3)CC2)cc1 as well.
A. 100 µg/mL

---

Assay: Cytotoxicity against human HEL cells
Format: cell-based
Param label: returns class 1 when CC50 < 30 µg/mL, returns class 0 otherwise, including exact equality.

>  <test-smiles>
Cc1ccc(-[n+]2noc([O-])c2CN2CCN(c3cccc(Cl)c3)CC2)cc1

>  <class>
class 0

$$$$
>  <test-smiles>
[O-]c1c[n+](-c2ccc(Cc3ccc(-[n+]4cc([O-])on4)cc3)cc2)no1

>  <class>
class 0

$$$$
>  <test-smiles>
Cc1ccc(-[n+]2noc([O-])c2CN2CCN(C)CC2)cc1

>  <class>
class 1

$$$$

Q. Does the reported CC50 of [O-]c1on[n+](-c2ccc(Cc3ccc(-[n+]4noc([O-])c4CN4CCCCC4)cc3)cc2)c1CN1CCCCC1 stay below 30 µg/mL?
A. class 1

Q. Please do the same for Cc1ccc(-[n+]2noc([O-])c2CN2CCOCC2)cc1 as well.
A. class 0

Q. Please do the same for [O-]c1on[n+](-c2ccc(Cc3ccc(-[n+]4noc([O-])c4CN4CCN(C5=Nc6ccccc6Sc6ccccc65)CC4)cc3)cc2)c1CN1CCN(C2=Nc3ccccc3Sc3ccccc32)CC1 as well.
A. class 1

Q. Please do the same for [O-]c1on[n+](-c2ccc(Cc3ccc(-[n+]4noc([O-])c4CN4CCN(c5cccc(Cl)c5Cl)CC4)cc3)cc2)c1CN1CCN(c2cccc(Cl)c2Cl)CC1 as well.
A. class 1

Q. Please do the same for Cc1ccc(-[n+]2noc([O-])c2CN2CCN(c3ccccc3)CC2)cc1 as well.
A. class 1
